- TESTED SYSTEM: T1, cynomolgus monkey OX40 (R&D, Cat. 10311-OX) (cynomolgus monkey)
- T1 construct: Bought protein; construct not described; also called Cynomolgus monkey OX40 antigen; Cyno OX40
- ASSAY NAME: ELISA, cynomolgus monkey OX40 coated at 0.5 ug/ml, serially diluted antibody, goat anti-human Fab secondary antibody, O.D. 450 nm
ASSAY ENDPOINT: EC50 (read off the curve)

Known results for binders:
[
  {
    "BINDER": "O410 (antibody, human IgG1, lambda, V domains shown) VH: EVQLLESGGGLVQPGGSLRLSCAASGFTFSDYYMSWVRQAPGKGLEWVSGIYSDGSRKYYADSVKGRFTISRDNSKNTLYLQMNSLRAEDTAVYYCARHWSRFDYWGQGTLVTVSS VL: QSVLTQPPSASGTPGQRVTISCSGSSSNIGSNYVTWYQQLPRTAPKLLIYYDSNRPSGVPDRFSGSKSGTSASLAISGLRSEDEADYYCGAWDDSLSGYVFGGGTKLTVLG",
    "EC50 (read off the curve)": "~20 pM"
  },
  {
    "BINDER": "O31C (antibody, human IgG1, lambda, V domains shown) VH: EVQLLESGGGLVQPGGSLRLSCAASGFTFSDYDMSWVRQAPGKGLEWVSSISPSSGSIYYADSVKGRFTISRDNSKNTLYLQMNSLRAEDTAVYYCAKDSIWCTNSRCYYDNAMDVWGQGTLVTVSS VL: QSVLTQPPSASGTPGQRVTISCSGSSSNIGNNAVSWYQQLPGTAPKLLIYSDSNRPSGVPDRFSGSKSGTSASLAISGLRSEDEADYYCGSWDYSLSAYVFGGGTKLTVLG",
    "EC50 (read off the curve)": "~80 pM"
  },
  {
    "BINDER": "O34 (antibody, V domains shown) VH: EVQLLESGGGLVQPGGSLRLSCAASGFTFSDYYMSWVRQAPGKGLEWVSGISSSGGNKYYADSVKGRFTISRDNSKNTLYLQMNSLRAEDTAVYYCARHWKRFDYWGQGTLVTVSS VL: QSVLTQPPSASGTPGQRVTISCTGPSSNIGNNDVSWYQQLPGTAPKLLIYANSNRPSGVSDRFSGSKSGTSASLAISGLRSEDEADYYCGTWDYSLSGYVLGGGTKLTVLG",
    "EC50 (read off the curve)": "~20 pM"
  }
]

q: Which EC50 (read off the curve) is listed for O32 (antibody, V domains shown) VH: EVQLLESGGGLVQPGGSLRLSCAASGFTFSSYSMSWVRQAPGKGLEWVSVISSGGGSTYYADSVKGRFTISRDNSKNTLYLQMNSLRAEDTAVYYCARHWRYFDYWGQGTLVTVSS VL: QSVLTQPPSASGTPGQRVTISCSGSSSNIGNNYVSWYQQLPGTAPKLLIYADSKRPSGVPDRFSGSKSGTSASLAISGLRSEDEADYYCGAWDSSLSGYVFGGGTKLTVLG ?
a: ~200 pM
